Measured Ki accompanies every entry in the list below.
Biological target: human recombinant L1196M ALK kinase domain (amino acids 1093-1411) (Homo sapiens, UniProt Q9UM73, L1196M)
Construct: ALK kinase domain (amino acids 1093-1411); made in house
Assay: L1196M mutant ALK enzyme assay (microfluidic mobility shift)
Assay type: biochemical
Details: ATP 60 μM, 0.5 nM enzyme, competitive inhibition fit; read-out: L1196M ALK enzyme assay (Ki)
Your answer is read as nM, so omit the unit and give the number.

// solved cases for Ki follow
CC1Oc2cc(cnc2N)-c2c(cnn2C)CCCCCOc2ccc(F)cc21 (single isomer, unassigned) [Example 131] = 794
CC1Oc2cc(F)ccc2C(=O)N(C)Cc2nn(C)c(C#N)c2-c2cnc(N)c1c2 (single isomer, unassigned) [Example 76] = 1.9
C[C@H]1Oc2nc(cnc2N)-c2c(C#N)n[nH]c2CN(C)C(=O)c2ccc(F)cc21 [Example 89] = 0.275
C[C@H]1Oc2nc(cnc2N)-c2c(C#N)cccc2CN(C)C(=O)c2ccc(F)cc21 [Example 97] = 24.7
CN1Cc2c(c(C#N)nn2C)-c2cnc(N)c(n2)OC(CF)c2ccccc2C1=O (single isomer, unassigned) [Example 127] = 0.52

Task: Need Ki of Cc1nn(S(=O)(=O)N(C)C)c2c1-c1cnc(N)c(c1)OCc1cc(F)ccc1OCCC2 [Example 44] , thanks.
Output: 70

Task: Need Ki of CC1Oc2nc(cnc2N)-c2c(nn(C)c2C#N)Cn2ccnc2-c2ccc(F)cc21 (single isomer, unassigned) [Example 109] , thanks.
Output: 4.7

Task: Need Ki of C[C@H]1Oc2nc(cnc2N)-c2c(noc2C#N)CN(C)C(=O)c2ccc(F)cc21 [Example 99] , thanks.
Output: 11.7

Task: Need Ki of CCc1nsc2c1-c1cnc(N)c(c1)O[C@H](C)c1cc(F)ccc1C(=O)N(C)C2 [Example 112] , thanks.
Output: 3.4

Task: Need Ki of C[C@H]1Oc2nc(cnc2N)-c2c(nn(C)c2C#N)CN(C)C(=O)c2c(F)cc(F)cc21 [Example 101] , thanks.
Output: 0.41

----------
Measured Ki accompanies every entry in the list below.
Biological target: human recombinant L1196M ALK kinase domain (amino acids 1093-1411) (Homo sapiens, UniProt Q9UM73, L1196M)
Construct: ALK kinase domain (amino acids 1093-1411); made in house
Test: L1196M mutant ALK enzyme assay (microfluidic mobility shift)
Type: biochemical
Conditions: ATP 60 μM, 0.5 nM enzyme, competitive inhibition fit; read-out: L1196M ALK enzyme assay (Ki)

CC1Oc2nc(cnc2N)-c2c(nn(C)c2C#N)Cn2ccnc2-c2ccc(F)cc21 (single isomer, unassigned) [Example 108] = < 0.05 nM
CC1Oc2cc(cnc2N)-c2c(cnn2C)CCCCCOc2ccc(F)cc21 (single isomer, unassigned) [Example 130] = > 3000 nM
CC1c2nn(C)c(C#N)c2-c2cnc(N)c(n2)OCc2cc(F)ccc2C(=O)N1C (single isomer, unassigned) [Example 80] = > 3000 nM

# evaluate next
Task: Need Ki of CC1Oc2nc(cnc2N)-c2c(nn(C)c2C#N)CN(C)C(=O)c2ccc(F)cc21 (single isomer, unassigned) [Example 33] , thanks.
Output: > 2680 nM
